Cited source for all entries: ChEMBL document CHEMBL2407033

study system: Peptidyl-prolyl cis-trans isomerase NIMA-interacting 1 (Homo sapiens)
test description: Inhibition of Pin1 (unknown origin)
observed property: IC50 (µM)
Please respond with the number in µM and leave the unit unwritten.

# chemical structure, study system, unit descriptor, IC50
data = [
    ("O=C(N[C@@H](COP(=O)(O)O)CN1CCC[C@H]1C(=O)NCCc1c[nH]c2ccccc12)OCC1c2ccccc2-c2ccccc21", "Peptidyl-prolyl cis-trans isomerase NIMA-interacting 1 (Homo sapiens)", "µM", 6),
    ("COc1ccc(F)cc1C(=O)[C@]1(C)CCc2ccccc21", "Peptidyl-prolyl cis-trans isomerase NIMA-interacting 1 (Homo sapiens)", "µM", 5.6),
    ("S=C(SC(=S)N1CCCCC1)N1CCCCC1", "Peptidyl-prolyl cis-trans isomerase NIMA-interacting 1 (Homo sapiens)", "µM", 4),
]

Field: next compound
Peptidyl-prolyl cis-trans isomerase NIMA-interacting 1 (Homo sapiens) / IC50 / Cc1oc(-c2ccc(CN)cc2)cc1C(=O)N[C@H](Cc1nc2ccccc2[nH]1)C(=O)O : value?
0.025

---

study system: Peptidyl-prolyl cis-trans isomerase NIMA-interacting 1 (Homo sapiens, UniProt Q13526)
Sequence (Q13526 whole entry): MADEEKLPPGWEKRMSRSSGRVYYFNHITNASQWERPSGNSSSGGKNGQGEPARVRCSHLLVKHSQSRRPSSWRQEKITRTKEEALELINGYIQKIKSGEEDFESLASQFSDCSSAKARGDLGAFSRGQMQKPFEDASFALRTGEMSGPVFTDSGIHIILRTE
test description: Inhibition of Pin1 (unknown origin) using Suc-Ala-Glu-cis-Pro-Phe-pNA as substrate
observed property: pIC50
// pIC50: -log10(molar conc.)

Peptidyl-prolyl cis-trans isomerase NIMA-interacting 1 (Homo sapiens, UniProt Q13526) / pIC50 / CC(=O)N[C@@H](Cc1ccccc1)C(=O)N[C@@H](Cc1ccccc1)C(=O)N[C@H](/C=C1/CCC[C@H]1C(=O)N[C@@H](CCCNC(=N)N)C(N)=O)COP(=O)(O)O : value?
5.82

---

study system: UniProt Q13526
test description: Inhibition of human Pin1
# IC50 per record follows
Please respond with the number in nM and leave the unit unwritten.

Solved cases (2 shown):
# chemical structure, study system, observed property, quantitative result
measured = [
    ("O=C(O)C[C@@H](C/C=C/c1cccc(F)c1)NC(=O)c1ccc2ccccc2c1", "UniProt Q13526", "IC50", 890),
    ("CCCCCc1ccc(CCC(=O)N[C@H](Cc2ccc(O)cc2)C(=O)N[C@@H](Cc2ccc(O)cc2)C(=O)N[C@@H](Cc2ccc3ccccc3c2)C(=O)O)cc1", "UniProt Q13526", "IC50", 600),
]

Field: next molecule
UniProt Q13526 / IC50 / O=C(N[C@H](Cc1cccc(F)c1)c1nn[nH]n1)c1ccc2ccccc2c1 : value?
4000

---

study system: Peptidyl-prolyl cis-trans isomerase NIMA-interacting 1 (Homo sapiens)
test description: Inhibition of Pin1 (unknown origin) using Suc-Ala-Glu-Pro-Phe-MCA as substrate after 120 secs by fluorescence microtiter plate reader analysis
observed property: IC50 (µM)
Please respond with the number in µM and leave the unit unwritten.

IC50 lookup needed for CCOC(=O)CN1C(=O)c2ccc3c4c(ccc(c24)C1=O)C(=O)N(CC(=O)OCC)C3=O , thanks.
1.5

---

study system: Peptidyl-prolyl cis-trans isomerase NIMA-interacting 1 (Homo sapiens, UniProt Q13526)
test description: Inhibition of full length Pin1 (unknown origin) using WFY(pS)PR-pNA as substrate by spectrophotometric analysis
observed property: IC50 (µM)
Please respond with the number in µM and leave the unit unwritten.

IC50 lookup needed for O=C(O[C@@H]1Cc2c(O)cc(O)cc2O[C@@H]1c1cc(O)c(O)c(O)c1)c1cc(O)c(O)c(O)c1 [EPIGALOCATECHIN GALLATE] , thanks.
20
